Recorded measurements of Polydispersity of siRNA-lipid complexes, one per entry
- testDetails: Nanoparticle diameter and polydispersity by dynamic light scattering (Malvern Zetasizer)
- Assay type: physicochemical
- measurementParameters: N/P = 15
propertyName: Polydispersity of siRNA-lipid complexes

molecule	testValue
CCCCCCCC/C=C\CCCCCCCC(=O)NC(CS)C(=O)NC(Cc1cnc[nH]1)C(=O)NCCNC(=O)CCN(CCCNCCCCNCCCN)CCC(=O)NCCNC(=O)C(Cc1cnc[nH]1)NC(=O)C(CS)NC(=O)CCCCCCC/C=C\CCCCCCCC (stereo not shown)	0.124
CCCCC/C=C\C/C=C\CCCCCCCC(=O)NC(CS)C(=O)NC(Cc1cnc[nH]1)C(=O)NCCNC(=O)CCN(CCN)CCC(=O)NCCNC(=O)C(Cc1cnc[nH]1)NC(=O)C(CS)NC(=O)CCCCCCC/C=C\C/C=C\CCCCC (stereo not shown) [EHCLn]	0.127
CCCCCCCC/C=C\CCCCCCCC(=O)NC(CS)C(=O)NC(Cc1cnc[nH]1)C(=O)NCCNC(=O)CCN(CCN)CCC(=O)NCCNC(=O)C(Cc1cnc[nH]1)NC(=O)C(CS)NC(=O)CCCCCCC/C=C\CCCCCCCC (stereo not shown)	0.161
CCCCCCCC/C=C\CCCCCCCC(=O)N[C@@H](CS)C(=O)NCCNC(=O)CCN(CCN)CCC(=O)NCCNC(=O)[C@H](CS)NC(=O)CCCCCCC/C=C\CCCCCCCC	0.005
CCCCC/C=C\C/C=C\CCCCCCCC(=O)NC(CS)C(=O)NCCNC(=O)CCN(CCCNCCCCNCCCN)CCC(=O)NCCNC(=O)C(CS)NC(=O)CCCCCCC/C=C\C/C=C\CCCCC (stereo not shown)	0.180
CCCCCCCC/C=C\CCCCCCCC(=O)NC(CS)C(=O)NCCNC(=O)CCN(CCCNCCCCNCCCN)CCC(=O)NCCNC(=O)C(CS)NC(=O)CCCCCCC/C=C\CCCCCCCC (stereo not shown)	0.176
CCCCC/C=C\C/C=C\CCCCCCCC(=O)NC(CS)C(=O)NC(Cc1cnc[nH]1)C(=O)NCCNC(=O)CCN(CCCNCCCCNCCCN)CCC(=O)NCCNC(=O)C(Cc1cnc[nH]1)NC(=O)C(CS)NC(=O)CCCCCCC/C=C\C/C=C\CCCCC (stereo not shown) [SHCLn]	0.163

---

- testDetails: Nanoparticle diameter and polydispersity by dynamic light scattering (Malvern Zetasizer)
- Type: physicochemical
- measurementParameters: siRNA-lipid complexes, N/P = 8
Condition met means recorded Nanoparticle diameter as measured by dynamic light scattering is 60 nm or above; Condition not met means it is below 60 nm.

molecule	label
CCCCC/C=C\C/C=C\CCCCCCCC(=O)NC(CS)C(=O)NC(Cc1cnc[nH]1)C(=O)NCCNC(=O)CCN(CCN)CCC(=O)NCCNC(=O)C(Cc1cnc[nH]1)NC(=O)C(CS)NC(=O)CCCCCCC/C=C\C/C=C\CCCCC (stereo not shown) [EHCLn]	Condition met
CCCCC/C=C\C/C=C\CCCCCCCC(=O)NC(CS)C(=O)NCCNC(=O)CCN(CCCNCCCCNCCCN)CCC(=O)NCCNC(=O)C(CS)NC(=O)CCCCCCC/C=C\C/C=C\CCCCC (stereo not shown)	Condition not met
CCCCCCCC/C=C\CCCCCCCC(=O)NC(CS)C(=O)NC(Cc1cnc[nH]1)C(=O)NCCNC(=O)CCN(CCN)CCC(=O)NCCNC(=O)C(Cc1cnc[nH]1)NC(=O)C(CS)NC(=O)CCCCCCC/C=C\CCCCCCCC (stereo not shown)	Condition met
CCCCC/C=C\C/C=C\CCCCCCCC(=O)NC(CS)C(=O)NC(Cc1cnc[nH]1)C(=O)NCCNC(=O)CCN(CCCNCCCCNCCCN)CCC(=O)NCCNC(=O)C(Cc1cnc[nH]1)NC(=O)C(CS)NC(=O)CCCCCCC/C=C\C/C=C\CCCCC (stereo not shown) [SHCLn]	Condition met
CCCCCCCC/C=C\CCCCCCCC(=O)NC(CS)C(=O)NCCNC(=O)CCN(CCCNCCCCNCCCN)CCC(=O)NCCNC(=O)C(CS)NC(=O)CCCCCCC/C=C\CCCCCCCC (stereo not shown)	Condition met
CCCCCCCC/C=C\CCCCCCCC(=O)NC(CS)C(=O)NC(Cc1cnc[nH]1)C(=O)NCCNC(=O)CCN(CCCNCCCCNCCCN)CCC(=O)NCCNC(=O)C(Cc1cnc[nH]1)NC(=O)C(CS)NC(=O)CCCCCCC/C=C\CCCCCCCC (stereo not shown)	Condition met

---

Recorded measurements of Nanoparticle diameter as measured by dynamic light scattering, one per entry
- testDetails: Nanoparticle diameter and polydispersity by dynamic light scattering (Malvern Zetasizer)
- Format: physicochemical
- measurementParameters: siRNA-lipid complexes, N/P = 5
- Method: The cationic lipid carriers are dissolved in ethanol at a stock concentration of 2.5 mM, while all siRNA is reconstituted in nuclease-free water at a 0.25 μg/μL (18.8 μM) concentration. […] A linear standard curve was utilized to calculate the encapsulation efficiencies from signal intensities measured by a SpectraMax microplate reader (Molecular Devices).
propertyName: Nanoparticle diameter as measured by dynamic light scattering (nm)

molecule	testValue
CCCCCCCC/C=C\CCCCCCCC(=O)NC(CS)C(=O)NC(Cc1cnc[nH]1)C(=O)NCCNC(=O)CCN(CCN)CCC(=O)NCCNC(=O)C(Cc1cnc[nH]1)NC(=O)C(CS)NC(=O)CCCCCCC/C=C\CCCCCCCC (stereo not shown)	427
CCCCC/C=C\C/C=C\CCCCCCCC(=O)NC(CS)C(=O)NCCNC(=O)CCN(CCCNCCCCNCCCN)CCC(=O)NCCNC(=O)C(CS)NC(=O)CCCCCCC/C=C\C/C=C\CCCCC (stereo not shown)	185
CCCCC/C=C\C/C=C\CCCCCCCC(=O)NC(CS)C(=O)NC(Cc1cnc[nH]1)C(=O)NCCNC(=O)CCN(CCN)CCC(=O)NCCNC(=O)C(Cc1cnc[nH]1)NC(=O)C(CS)NC(=O)CCCCCCC/C=C\C/C=C\CCCCC (stereo not shown) [EHCLn]	379
CCCCC/C=C\C/C=C\CCCCCCCC(=O)NC(CS)C(=O)NC(Cc1cnc[nH]1)C(=O)NCCNC(=O)CCN(CCCNCCCCNCCCN)CCC(=O)NCCNC(=O)C(Cc1cnc[nH]1)NC(=O)C(CS)NC(=O)CCCCCCC/C=C\C/C=C\CCCCC (stereo not shown) [SHCLn]	223
CCCCCCCC/C=C\CCCCCCCC(=O)N[C@@H](CS)C(=O)NCCNC(=O)CCN(CCN)CCC(=O)NCCNC(=O)[C@H](CS)NC(=O)CCCCCCC/C=C\CCCCCCCC	448
CCCCCCCC/C=C\CCCCCCCC(=O)NC(CS)C(=O)NC(Cc1cnc[nH]1)C(=O)NCCNC(=O)CCN(CCCNCCCCNCCCN)CCC(=O)NCCNC(=O)C(Cc1cnc[nH]1)NC(=O)C(CS)NC(=O)CCCCCCC/C=C\CCCCCCCC (stereo not shown)	238
CCCCCCCC/C=C\CCCCCCCC(=O)NC(CS)C(=O)NCCNC(=O)CCN(CCCNCCCCNCCCN)CCC(=O)NCCNC(=O)C(CS)NC(=O)CCCCCCC/C=C\CCCCCCCC (stereo not shown)	138

---

Recorded measurements of Nanoparticle diameter as measured by dynamic light scattering, one per entry
- testDetails: Nanoparticle diameter and polydispersity by dynamic light scattering (Malvern Zetasizer)
- Format: physicochemical
- measurementParameters: siRNA-lipid complexes, N/P = 10
propertyName: Nanoparticle diameter as measured by dynamic light scattering (nm)

molecule	readoutUnits	testValue
CCCCCCCC/C=C\CCCCCCCC(=O)NC(CS)C(=O)NC(Cc1cnc[nH]1)C(=O)NCCNC(=O)CCN(CCCNCCCCNCCCN)CCC(=O)NCCNC(=O)C(Cc1cnc[nH]1)NC(=O)C(CS)NC(=O)CCCCCCC/C=C\CCCCCCCC (stereo not shown)	nm	151
CCCCC/C=C\C/C=C\CCCCCCCC(=O)NC(CS)C(=O)NC(Cc1cnc[nH]1)C(=O)NCCNC(=O)CCN(CCCNCCCCNCCCN)CCC(=O)NCCNC(=O)C(Cc1cnc[nH]1)NC(=O)C(CS)NC(=O)CCCCCCC/C=C\C/C=C\CCCCC (stereo not shown) [SHCLn]	nm	132
CCCCCCCC/C=C\CCCCCCCC(=O)N[C@@H](CS)C(=O)NCCNC(=O)CCN(CCN)CCC(=O)NCCNC(=O)[C@H](CS)NC(=O)CCCCCCC/C=C\CCCCCCCC	nm	78
CCCCCCCC/C=C\CCCCCCCC(=O)NC(CS)C(=O)NC(Cc1cnc[nH]1)C(=O)NCCNC(=O)CCN(CCN)CCC(=O)NCCNC(=O)C(Cc1cnc[nH]1)NC(=O)C(CS)NC(=O)CCCCCCC/C=C\CCCCCCCC (stereo not shown)	nm	141
CCCCCCCC/C=C\CCCCCCCC(=O)NC(CS)C(=O)NCCNC(=O)CCN(CCCNCCCCNCCCN)CCC(=O)NCCNC(=O)C(CS)NC(=O)CCCCCCC/C=C\CCCCCCCC (stereo not shown)	nm	65
CCCCC/C=C\C/C=C\CCCCCCCC(=O)NC(CS)C(=O)NC(Cc1cnc[nH]1)C(=O)NCCNC(=O)CCN(CCN)CCC(=O)NCCNC(=O)C(Cc1cnc[nH]1)NC(=O)C(CS)NC(=O)CCCCCCC/C=C\C/C=C\CCCCC (stereo not shown) [EHCLn]	nm	130
CCCCC/C=C\C/C=C\CCCCCCCC(=O)NC(CS)C(=O)NCCNC(=O)CCN(CCCNCCCCNCCCN)CCC(=O)NCCNC(=O)C(CS)NC(=O)CCCCCCC/C=C\C/C=C\CCCCC (stereo not shown)	nm	50
